Recorded half-life by entry
Assay: Half life in human liver microsomes
Assay type: ADME, Microsome

smiles data	half-life [min]
COC(=O)Nc1ccc2c(c1)NC(=O)[C@H](C)CCC[C@H](N1CCN(c3c(F)ccc(Cl)c3F)CC1=O)c1cc-2ccn1	4
COC(=O)Nc1ccc2c(c1)NC(=O)[C@H](C)CCC[C@H](N1CC[C@H](c3c(F)ccc(Cl)c3F)OC1=O)c1ccnc-2c1	36
COC(=O)Nc1ccc2c(c1)NC(=O)[C@H](C)CCC[C@H](N1CC[C@H](c3c(F)ccc(Cl)c3F)OC1=O)c1cc-2cnc1F	9
COC(=O)Nc1ccc2c(c1)NC(=O)[C@H](C)CCC[C@H](N1CCN(c3c(F)ccc(Cl)c3F)C(=O)C1=O)c1cc-2ccn1	76
COC(=O)Nc1ccc2c(c1)NC(=O)[C@H](C)CCC[C@H](N1CC[C@H](c3c(F)ccc(Cl)c3F)OC1=O)c1ncc-2[nH]1	55
COC(=O)Nc1ccc2c(c1)NC(=O)[C@H](C)CCC[C@H](N1CC[C@H](c3c(F)ccc(Cl)c3F)OC1=O)c1cncc-2c1	17

###

Experiment: Half life in dog liver microsomes
Type: ADME, Canis lupus familiaris, Microsome
// boundary case: half-life equal to 20 min maps to class 0; strictly smaller maps to class 1

molecule	label class
COC(=O)Nc1ccc2c(c1)NC(=O)[C@H](C)CCC[C@H](N1CCN(c3c(F)ccc(Cl)c3F)CC1=O)c1cc-2ccn1	class 1
COC(=O)Nc1ccc2c(c1)NC(=O)[C@H](C)CCC[C@H](N1CC(=O)N(c3c(F)ccc(Cl)c3F)CC1=O)c1cc-2ccn1	class 0
COC(=O)Nc1ccc2c(c1)NC(=O)[C@H](C)CCC[C@H](N1CCC(c3c(F)ccc(Cl)c3F)CC1=O)c1cc-2ccn1 (mixture of isomers)	class 1
COC(=O)Nc1ccc2c(c1)NC(=O)[C@H](C)CCC[C@H](N1CC[C@H](c3c(F)ccc(Cl)c3F)OC1=O)c1ccnc-2c1	class 0
COC(=O)Nc1ccc2c(c1)NC(=O)[C@H](C)CCC[C@H](N1CCN(c3c(F)ccc(Cl)c3F)C(=O)C1=O)c1cc-2ccn1	class 0
COC(=O)Nc1ccc2c(c1)NC(=O)[C@H](C)CCC[C@H](N1CC[C@H](c3c(F)ccc(Cl)c3F)OC1=O)c1cc-2cnc1F	class 1
COC(=O)Nc1ccc2c(c1)NC(=O)[C@H](C)CCC[C@H](N1CC[C@H](c3c(F)ccc(Cl)c3F)OC1=O)c1ncc-2[nH]1	class 0

Cited source for all entries: ChEMBL document CHEMBL4616668
